These data points were gathered from patent US20250368734A1.

- study_system: T1, human GPRC5D (human, UniProt Q9NZD1 1-345)
- T1 construct: whole, on cells; also called hGPRC5D; G-protein coupled receptor family C group 5 member D
- T1 sequence (Q9NZD1 whole entry): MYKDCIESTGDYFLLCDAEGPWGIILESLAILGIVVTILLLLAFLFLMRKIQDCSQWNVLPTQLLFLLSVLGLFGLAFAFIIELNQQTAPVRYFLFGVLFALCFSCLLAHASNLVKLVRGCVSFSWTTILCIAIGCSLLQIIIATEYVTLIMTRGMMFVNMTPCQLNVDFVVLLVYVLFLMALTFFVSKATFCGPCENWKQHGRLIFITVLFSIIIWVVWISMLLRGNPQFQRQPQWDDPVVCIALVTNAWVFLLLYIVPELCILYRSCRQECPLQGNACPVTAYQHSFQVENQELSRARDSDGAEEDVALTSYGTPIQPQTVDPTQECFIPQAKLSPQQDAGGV
- assay_protocol: FACS, OPM-2 cells
measured_endpoint: MFI
Kindly provide the number alone.

98A3A8 (antibody, V domains shown, Mouse monoclonal antibody from hybridoma subclone) VH: EVQLQQSGPELVKPGASVKMSCKASGYTFTYYVTHWVRQKPGQGLEWIGYINPYNDGTMFNEKFKGKATLTSDKSSSTAYMEFSSLTSEDSAVFYCARGGVRRYFDVWGAGTTVTVSS VL: DIQMTQSPSSLSASLGERVSLTCRASQDIGSNLNWLQQKPDGTIKRLIYATSSLDSGVPKRFSGSRSGSDYSLTINSLESEDFVDYYCLQYASFPYTFGGGTKLEIK | 962

# ---- query binder ----
MFI for 89F11E3 (antibody, V domains shown, Mouse monoclonal antibody from hybridoma subclone) VH: QVQLQQSGAELARPGASVKMSCKASGYTFTSSTIHWVKQRPGQGLAWIGYIVPSTGYTNYNQKFKDKATLTADKSSSTAYMQLTSLTSEDSAVYYCARSDGYPFGYSMAYWGQGTSVTVSS VL: DIQMNQSPSSLSASLGDTITITCHASQNINVWLSWYHQKPGNIPKLLIYKASNLHTGVPSRFSGSGSGTGFTLTISRLQPEDIATYYCQQGQSYPFTFGSGTKLEIK is 999
